- System: Candida albicans A9540
- TEST: animal or person
- Format: in vivo, male ICR mice infected with Candida albicans A9540
- CONDITION: Candida albicans, A9540, 480 h; C. albicans, mice, 25 mg/kg iv, 20th day post-infection; read-out: S/T (No. of survivors/tested) (converted)
READOUT_LABEL: responders at 25 mg/kg (%)
Answer in %, number only, no unit symbol.

Returns the measured responders at 25 mg/kg for the input molecule. Input: COc1cc(O)c2c(c1)C(=O)c1c(cc3c(c1O)-c1c(cc(C)c(C(=O)N[C@H](C)C(=O)O)c1O)[C@H](O[C@@H]1O[C@H](C)[C@H](N)[C@H](O[C@@H]4OC[C@@H](O)[C@H](O)[C@H]4O)[C@H]1O)[C@H]3O)C2=O [Pradimicin C]
100

And for COc1cc(O)c2c(c1)C(=O)c1c(cc3c(c1O)-c1c(cc(C)c(C(=O)N[C@H](C)C(=O)O)c1O)[C@H](O[C@@H]1O[C@H](C)[C@H](NC#N)[C@H](O[C@@H]4OC[C@@H](O)[C@H](O)[C@H]4O)[C@H]1O)[C@H]3O)C2=O [KHM-2, 4'-N-Cyanopradimicin C] ?
80

And for COc1cc(O)c2c(c1)C(=O)c1c(cc3c(c1O)-c1c(cc(C)c(C(=O)N[C@H](CO)C(=O)O)c1O)[C@H](O[C@@H]1O[C@H](C)[C@H](NC#N)[C@H](O[C@@H]4OC[C@@H](O)[C@H](O)[C@H]4O)[C@H]1O)[C@H]3O)C2=O [KHM-4, 4'-N-Cyanopradimicin FA2] ?
60

And for COc1cc(O)c2c(c1)C(=O)c1c(cc3c(c1O)-c1c(cc(C)c(C(=O)N[C@H](CO)C(=O)O)c1O)[C@H](O[C@@H]1O[C@H](C)[C@H](N)[C@H](O[C@@H]4OC[C@@H](O)[C@H](O)[C@H]4O)[C@H]1O)[C@H]3O)C2=O [Pradimicin FA-2, reference compound] ?
100

And for COc1cc(O)c2c(c1)C(=O)c1c(cc3c(c1O)-c1c(cc(C)c(C(=O)N[C@H](CO)C(=O)O)c1O)[C@H](O[C@@H]1O[C@H](C)[C@H](N(C)C#N)[C@H](O[C@@H]4OC[C@@H](O)[C@H](O)[C@H]4O)[C@H]1O)[C@H]3O)C2=O [KHM-3, 4'-Cyanooradimicin FA-1] ?
0

And for CN[C@@H]1[C@H](O[C@@H]2OC[C@@H](O)[C@H](O)[C@H]2O)[C@@H](O)[C@H](O[C@H]2c3cc(C)c(C(=O)N[C@H](C)C(=O)O)c(O)c3-c3c(cc4c(c3O)C(=O)c3cc(OC)cc(O)c3C4=O)[C@@H]2O)O[C@@H]1C [Pradimicin A, reference compound] ?
100

And for CN[C@@H]1[C@H](O[C@@H]2OC[C@@H](O)[C@H](O)[C@H]2O)[C@@H](O)[C@H](O[C@H]2c3cc(C)c(C(=O)N[C@H](CO)C(=O)O)c(O)c3-c3c(cc4c(c3O)C(=O)c3cc(OC)cc(O)c3C4=O)[C@@H]2O)O[C@@H]1C [Pradimicin FA-1, reference compound] ?
80
